Provenance of the data: ChEMBL document CHEMBL3352443

# EXPERIMENT NOTES: Cytotoxicity against mouse J774A1 cells assessed as cell viability at IC50 by MTT assay relative to control
# Format: cell-based, J774.A1
# ASSAY CONTEXT: read-out: Activity
Please provide measured viability for the entries that follow.
Write it as a number; the unit % goes unstated.

Endpoint output: viability of "C=C(C)[C@@H]1CC[C@]2(C)CC[C@]3(C)[C@H](CC[C@@H]4[C@@]5(C)Cc6nccnc6C(C)(C)[C@@H]5CC[C@]43C)[C@@H]12" . Value?
93.3

For the compound shown here, "C=C(C)[C@@H]1CC[C@]2(C)CC[C@]3(C)[C@H](CC[C@@H]4[C@@]5(C)CC/C(=N\O)C(C)(C)[C@@H]5CC[C@]43C)[C@@H]12" , give the reported viability.
93.6

Dear colleague, I am looking for the recorded viability of the following compound: "C=C(C)[C@@H]1CC[C@]2(C)CC[C@]3(C)[C@H](CC[C@@H]4[C@@]5(C)CC[C@H](N(O)c6ccccc6)C(C)(C)[C@@H]5CC[C@]43C)[C@@H]12"
82.5

###

# Tested on: RAW264.7
# EXPERIMENT NOTES: Antiinflammatory activity in mouse RAW264.7 cells assessed as inhibition of LPS-induced NO production incubated for 1 hr prior to LPS challenge measured after 24 hrs by Griess method
# Format: functional, cell-based
QUANTITY NAME: IC50 (µM)
Response body: numeric value in µM, unit text excluded.

Item under review: "C=C(C)[C@@H]1CC[C@]2(C)CC[C@]3(C)[C@H](CC[C@@H]4[C@@]5(C)CCC(=S)C(C)(C)[C@@H]5CC[C@]43C)[C@@H]12" . Reported IC50?
36.2

Entry "C=C(C)[C@@H]1CC[C@]2(C)CC[C@]3(C)[C@H](CC[C@@H]4[C@@]5(C)CC/C(=N\O)C(C)(C)[C@@H]5CC[C@]43C)[C@@H]12" : reported IC50 = ?
46

What does the data say about its IC50? Entry: "C=C(C)[C@@H]1CC[C@]2(C)CC[C@]3(C)[C@H](CC[C@@H]4[C@@]5(C)Cc6c([nH]c7ccc(F)cc67)C(C)(C)[C@@H]5CC[C@]43C)[C@@H]12"
41.7

May I ask what IC50 has been recorded for "COc1cc(/C=C/C(=O)CC(=O)/C=C/c2ccc(O)c(OC)c2)ccc1O" ?
11

###

# EXPERIMENT NOTES: Cytotoxicity against mouse J774A1 cells assessed as cell viability at IC50 by MTT assay relative to control
# Format: cell-based, J774.A1
# ASSAY CONTEXT: read-out: Activity
Quick rule for you: viability under 90% gets t, anything else gets f.

Regarding "C=C(C)[C@@H]1CC[C@]2(C)CC[C@]3(C)[C@H](CC[C@@H]4[C@@]5(C)Cc6c([nH]c7ccc(Cl)cc67)C(C)(C)[C@@H]5CC[C@]43C)[C@@H]12" , kindly confirm whether its viability is beneath 90%.
f

Consider "C=C(C)[C@@H]1CC[C@]2(C)CC[C@]3(C)[C@H](CC[C@@H]4[C@@]5(C)Cc6c([nH]c7ccc(C)cc67)C(C)(C)[C@@H]5CC[C@]43C)[C@@H]12" . Does its viability lie strictly below 90%?
t

###

# EXPERIMENT NOTES: Cytotoxicity against mouse J774A1 cells assessed as cell viability at IC50 by MTT assay relative to control
# Type: cell-based, J774.A1
# ASSAY CONTEXT: read-out: Activity
Kindly supply the reported viability values for the records listed here.
Just the number in %, nothing appended.

Which viability value is on record for "C=C(C)[C@@H]1CC[C@]2(C)CC[C@]3(C)[C@H](CC[C@@H]4[C@@]5(C)Cc6c([nH]c7c(CC)cccc67)C(C)(C)[C@@H]5CC[C@]43C)[C@@H]12" ?
91.7

State the recorded viability for this entry: "C=C(C)[C@@H]1CC[C@]2(C)CC[C@]3(C)[C@H](CC[C@@H]4[C@@]5(C)CC[C@H](O)C(C)(C)[C@@H]5CC[C@]43C)[C@@H]12"
88.3

# get_value(readout='viability', item= "C=C(C)[C@@H]1CC[C@]2(C)CC[C@]3(C)[C@H](CC[C@@H]4[C@@]5(C)CCC(=O)C(C)(C)[C@@H]5CC[C@]43C)[C@@H]12" )
87.7
